Assay Details: Mean residence time in 30 months-old Lister Hooded rat at 1 mg/kg, iv infusion for 1 hr
Measurement Context: in vivo
Reported Endpoint: MRT at 1 h (h)
Just the number please, in h, no unit attached.

{"columns": ["Compound", "Unit", "MRT at 1 h"],
 "data": [
  ["Br.COc1ccc2c3c1O[C@H]1C[C@@H](O)C=C[C@@]31CCN(C)C2 [GALANTAMINE HYDROBROMIDE]", "h", 1.5],
  ["COc1cc2c(cc1OC)C(=O)C(CC1CCN(Cc3ccccc3)CC1)C2.Cl (stereo not drawn) [DONEPEZIL HYDROCHLORIDE]", "h", 4.6]
]}

Shift focus to the following entry.
Given the compound Cl.Nc1c2c(nc3ccccc13)CCCC2 [TACRINE HYDROCHLORIDE] , write its reported MRT at 1 h.
1.1
